UniProt P78527 data, read-out IC50
measurement-name: IC50 (nM)

Here is how some molecules turned out for IC50.
* Cc1cc2ncnn2cc1Nc1ncc2c(C)nn(C3CCCC3)c2n1 | 1.7
* Cc1cc2nccn2cc1Nc1ncc2c(n1)c(C1=CCOCC1)nn2C | 1.6

A. Cc1cc2ncnn2cc1Nc1ncc2c(C)nn([C@H]3CC[C@@H](O)CC3)c2n1
B. Cc1cc2ncnn2cc1Nc1ncc2c(C)nn([C@H]3C[C@@H](C)C3)c2n1
Hey, between A and B which has a smaller measured IC50? To answer, give the label that identifies your chosen option.
A

---

test system: MDR1, BCRP; experiment: MDCKII-MDR1-BCRP efflux assay; format: in vitro ADME; settings: dog, pH 7.4, 5 μM compound, HBSS pH 7.4, read-out: MDCK-Mdr1-BCRP efflux ratio
measurement-name: efflux ratio at 120 min, 5 μM

- COCCCn1nc(C)c2cnc(Nc3cn4ncnc4cc3C)nc21 [Example 65]: 2
- COC1CCC(n2nc(C)c3cnc(Nc4cn5ncnc5cc4C)nc32)C1 (single isomer, unassigned) [Example 108]: 2
- Cc1cc2ncnn2cc1Nc1ncc2c(C)nn(C3CCOC3)c2n1 (single isomer, unassigned) [Example 48]: 3.6
- Cc1cc2ncnn2cc1Nc1ncc2c(C)nn(CC3CCOC3)c2n1 (single isomer, unassigned) [Example 52]: 3.2
- Cc1cc2ncnn2cc1Nc1ncc2c(n1)c(C1CCOCC1)cn2C [Example 3]: 3.1
- Cc1cc2ncnn2cc1Nc1ncc2c(C)nn(C3CCCOCC3)c2n1 (single isomer, unassigned) [Example 33]: 3

A. Cc1cc2nccn2cc1Nc1ncc2c(C)nn(C(C)C)c2n1 [Example 60]
B. Cc1cc2ncnn2cc1Nc1ncc2c(C)nn(C3CCOC(C)C3)c2n1 (single isomer, unassigned) [Example 35]
Hi, I'm comparing A with B and wondering which one has the bigger number for efflux ratio at 120 min, 5 μM. Any idea? In your reply, give the label of the chosen option.
B
(B: 1.7, A: 0.7)

a. Cc1cc2ncnn2cc1Nc1ncc2c(C)nn([C@H]3C[C@@H](C)C3)c2n1 [Example 40]
b. [2H]C([2H])([2H])n1nc(C2CCOCC2)c2nc(Nc3cn4ncnc4cc3C)ncc21 [Example 10]
Identify the entry with the smaller efflux ratio at 120 min, 5 μM: a or b . To answer, give the label that identifies your chosen option.
a
(a: 0.9, b: 7.2)

Ref: patent US12630565B2
